Form field: IC50 (one value per entry).
Molecular target: Androgen receptor (Homo sapiens, UniProt P10275)
Sequence (P10275 whole entry): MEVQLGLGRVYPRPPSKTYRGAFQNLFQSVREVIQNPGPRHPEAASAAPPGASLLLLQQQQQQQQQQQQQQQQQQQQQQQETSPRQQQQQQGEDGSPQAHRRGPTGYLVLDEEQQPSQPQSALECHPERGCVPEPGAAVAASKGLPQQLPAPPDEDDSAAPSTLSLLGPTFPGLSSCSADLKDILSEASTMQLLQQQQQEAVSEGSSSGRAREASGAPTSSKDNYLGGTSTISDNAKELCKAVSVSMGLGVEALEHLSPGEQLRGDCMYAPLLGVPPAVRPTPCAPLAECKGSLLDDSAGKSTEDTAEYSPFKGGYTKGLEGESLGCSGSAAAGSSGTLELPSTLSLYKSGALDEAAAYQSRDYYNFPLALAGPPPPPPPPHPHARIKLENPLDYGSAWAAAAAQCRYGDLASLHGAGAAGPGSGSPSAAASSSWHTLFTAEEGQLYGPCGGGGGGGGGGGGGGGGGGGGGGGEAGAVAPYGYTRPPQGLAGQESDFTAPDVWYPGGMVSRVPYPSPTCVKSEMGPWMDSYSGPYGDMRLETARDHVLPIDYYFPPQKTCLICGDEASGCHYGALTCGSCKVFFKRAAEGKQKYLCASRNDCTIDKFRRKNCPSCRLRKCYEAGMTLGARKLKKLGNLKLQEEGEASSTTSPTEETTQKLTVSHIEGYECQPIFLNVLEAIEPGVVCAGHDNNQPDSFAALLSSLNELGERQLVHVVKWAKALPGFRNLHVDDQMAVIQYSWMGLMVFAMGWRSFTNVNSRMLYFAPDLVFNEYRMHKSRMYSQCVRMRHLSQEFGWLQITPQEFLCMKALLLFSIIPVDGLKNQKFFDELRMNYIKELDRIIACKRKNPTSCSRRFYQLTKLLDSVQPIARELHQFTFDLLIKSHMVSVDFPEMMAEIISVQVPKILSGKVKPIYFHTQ
Experiment: biochemical
Description: Displacement of [3H]dihydrotestosterone from human androgen receptor expressed in Sf9 cells
observedProperty: IC50 (nM)

>>> df
                                   molecule                                testtarget  unitlabel  reported
0          CCCN(CCC)c1cc(C(F)(F)F)c(C#N)cn1  Androgen receptor (Homo sapiens, UniProt P10275)         nM        78
1  CCC(C)N(C)c1cc(C(F)(F)F)c(C#N)cn1 (configuration not stated)  Androgen receptor (Homo sapiens, UniProt P10275)         nM         7
2  C[C@@H](c1ccccc1)N(C)c1cc(C(F)(F)F)c(C#N)cn1  Androgen receptor (Homo sapiens, UniProt P10275)         nM      1700
3  C[C@@H](Nc1cc(C(F)(F)F)c(C#N)cn1)c1ccccc1  Androgen receptor (Homo sapiens, UniProt P10275)         nM      4930
4  N#Cc1cnc(N2CCC3CCCCC3C2)cc1C(F)(F)F (configuration not stated)  Androgen receptor (Homo sapiens, UniProt P10275)         nM       169
5        CC1CCN(c2cc(C(F)(F)F)c(C#N)cn2)CC1  Androgen receptor (Homo sapiens, UniProt P10275)         nM        73
6             N#Cc1cnc(N2CCCCC2)cc1C(F)(F)F  Androgen receptor (Homo sapiens, UniProt P10275)         nM       209
